# Ki listing for each entry below
Assayed Target: LHRH rat pituitary receptor (Rattus norvegicus, UniProt P30969)
Construct: from tissue; host or cells: rat pituitary
Protocol Notes: LHRH rat pituitary receptor binding (pKI)
Condition Context: negative logarithm of the equilibrium dissociation constants, Table 1, read-out: receptor binding affinity (pKI) (converted)
The answer is to be given in nM; state only the numeric part.

Example results:
CC[C@H]1OC(=O)[C@H](C)[C@@H](O[C@H]2C[C@@](C)(OC)[C@@H](O)[C@H](C)O2)[C@H](C)[C@@H](O[C@@H]2O[C@H](C)C[C@H](N(C)C3CCCCC3)[C@H]2O)[C@](C)(OC)C[C@@H](C)C(=O)[C@H](C)[C@H]2N(CCc3ccc(Cl)c(Cl)c3)C(=O)O[C@]12C; 3.63
CC[C@H]1OC(=O)[C@H](C)[C@@H](O[C@H]2C[C@@](C)(OC)[C@@H](O)[C@H](C)O2)[C@H](C)[C@@H](O[C@@H]2O[C@H](C)C[C@H](N(C)CCCc3ccccn3)[C@H]2O)[C@](C)(OC)C[C@@H](C)C(=O)[C@H](C)[C@H]2N(CCc3ccc(Cl)c(Cl)c3)C(=O)O[C@]12C; 6.17

Now consider the entry below.
Tell me Ki reported for CCCN(C)[C@H]1C[C@@H](C)O[C@@H](O[C@@H]2[C@@H](C)[C@H](O[C@H]3C[C@@](C)(OC)[C@@H](O)[C@H](C)O3)[C@@H](C)C(=O)O[C@H](CC)[C@@]3(C)OC(=O)N(CCc4ccc(C)c(C)c4)[C@@H]3[C@@H](C)C(=O)[C@H](C)C[C@@]2(C)OC)[C@@H]1O
8.51

----------
# Ki listing for each entry below
Assayed Target: LHRH rat pituitary receptor (Rattus norvegicus)
Construct: from tissue; host or cells: rat pituitary
Protocol Notes: LHRH rat pituitary receptor binding (pKI)
Condition Context: negative logarithm of the equilibrium dissociation constants, Table 1, read-out: receptor binding affinity (pKI) (converted)
The answer is to be given in nM; state only the numeric part.

Example results:
CC[C@H]1OC(=O)[C@H](C)[C@@H](O[C@H]2C[C@@](C)(OC)[C@@H](O)[C@H](C)O2)[C@H](C)[C@@H](O[C@@H]2O[C@H](C)C[C@H](N(C)C3CCCC3)[C@H]2O)[C@](C)(OC)C[C@@H](C)C(=O)[C@H](C)[C@H]2N(CCc3ccc(Cl)c(Cl)c3)C(=O)O[C@]12C [Example 1]; 0.813
CC[C@H]1OC(=O)[C@H](C)[C@@H](O[C@H]2C[C@@](C)(OC)[C@@H](O)[C@H](C)O2)[C@H](C)[C@@H](O[C@@H]2O[C@H](C)C[C@H](N(C)Cc3ccccn3)[C@H]2O)[C@](C)(OC)C[C@@H](C)C(=O)[C@H](C)[C@H]2N(CCc3ccc(F)c(Cl)c3)C(=O)O[C@]12C [Example 47]; 2.51

Tell me Ki reported for CC[C@H]1OC(=O)[C@H](C)[C@@H](O[C@H]2C[C@@](C)(OC)[C@@H](O)[C@H](C)O2)[C@H](C)[C@@H](O[C@@H]2O[C@H](C)C[C@H](N(C)Cc3ccc([N+](=O)[O-])s3)[C@H]2O)[C@](C)(OC)C[C@@H](C)C(=O)[C@H](C)[C@H]2N(CCc3ccc(Cl)c(Cl)c3)C(=O)O[C@]12C [Example 66]
1.38

----------
# Ki listing for each entry below
Assayed Target: LHRH rat pituitary receptor (Rattus norvegicus)
Construct: from tissue; host or cells: rat pituitary
Protocol Notes: LHRH rat pituitary receptor binding (pKI)
Condition Context: negative logarithm of the equilibrium dissociation constants, Table 1, read-out: receptor binding affinity (pKI) (converted)
The answer is to be given in nM; state only the numeric part.

CC[C@H]1OC(=O)[C@H](C)[C@@H](O[C@H]2C[C@@](C)(OC)[C@@H](O)[C@H](C)O2)[C@H](C)[C@@H](O[C@@H]2O[C@H](C)C[C@H](N(C)Cc3ncc[nH]3)[C@H]2O)[C@](C)(OC)C[C@@H](C)C(=O)[C@H](C)[C@H]2N(CCc3ccc(Cl)c(Cl)c3)C(=O)O[C@]12C; 7.41

Now consider the entry below.
Tell me Ki reported for CC[C@H]1OC(=O)[C@H](C)[C@@H](O[C@H]2C[C@@](C)(OC)[C@@H](O)[C@H](C)O2)[C@H](C)[C@@H](O[C@@H]2O[C@H](C)C[C@H](N(C)C3CCSC3)[C@H]2O)[C@](C)(OC)C[C@@H](C)C(=O)[C@H](C)[C@H]2N(CCc3ccc(Cl)c(Cl)c3)C(=O)O[C@]12C (some centres unmarked)
7.41

----------
Assayed Target: LHRH rat pituitary receptor (Rattus norvegicus)
Construct: from tissue; host or cells: rat pituitary
Protocol Notes: LHRH rat pituitary receptor binding (pKI)
Condition Context: negative logarithm of the equilibrium dissociation constants, Table 1, read-out: receptor binding affinity (pKI) (converted)
Measured Attribute: Ki (nM)
The answer is to be given in nM; state only the numeric part.

CC[C@H]1OC(=O)[C@H](C)[C@@H](O[C@H]2C[C@@](C)(OC)[C@@H](O)[C@H](C)O2)[C@H](C)[C@@H](O[C@@H]2O[C@H](C)C[C@H](N(C)CCCCc3ccncc3)[C@H]2O)[C@](C)(OC)C[C@@H](C)C(=O)[C@H](C)[C@H]2N(CCc3ccc(Cl)c(Cl)c3)C(=O)O[C@]12C [Example 78]; 7.94
CC[C@H]1OC(=O)[C@H](C)[C@@H](O[C@H]2C[C@@](C)(OC)[C@@H](O)[C@H](C)O2)[C@H](C)[C@@H](O[C@@H]2O[C@H](C)C[C@H](N(C)Cc3ccc([N+](=O)[O-])o3)[C@H]2O)[C@](C)(OC)C[C@@H](C)C(=O)[C@H](C)[C@H]2N(CCc3ccc(Cl)c(Cl)c3)C(=O)O[C@]12C [Example 68]; 5.13
CC[C@H]1OC(=O)[C@H](C)[C@@H](O[C@H]2C[C@@](C)(OC)[C@@H](O)[C@H](C)O2)[C@H](C)[C@@H](O[C@@H]2O[C@H](C)C[C@H](N(C)Cc3ccccn3)[C@H]2O)[C@](C)(OC)C[C@@H](C)C(=O)[C@H](C)[C@H]2N(CCc3ccc(Cl)c(Cl)c3)C(=O)O[C@]12C [Example 65]; 7.41
CC[C@H]1OC(=O)[C@H](C)[C@@H](O[C@H]2C[C@@](C)(OC)[C@@H](O)[C@H](C)O2)[C@H](C)[C@@H](O[C@@H]2O[C@H](C)C[C@H](N(C)C3CCCC3)[C@H]2O)[C@](C)(OC)C[C@@H](C)C(=O)[C@H](C)[C@H]2N(CCc3ccc(OC)c(Br)c3)C(=O)O[C@]12C [Example 42]; 7.24

Fill: Ki (LHRH rat pituitary receptor (Rattus norvegicus)) for this compound CC[C@H]1OC(=O)[C@H](C)[C@@H](O[C@H]2C[C@@](C)(OC)[C@@H](O)[C@H](C)O2)[C@H](C)[C@@H](O[C@@H]2O[C@H](C)C[C@H](N(C)Cc3ccncc3)[C@H]2O)[C@](C)(OC)C[C@@H](C)C(=O)[C@H](C)[C@H]2N(CCc3ccc(Cl)c(Cl)c3)C(=O)O[C@]12C [Example 92]
6.31

Fill: Ki (LHRH rat pituitary receptor (Rattus norvegicus)) for this compound CCC(C)N(C)[C@H]1C[C@@H](C)O[C@@H](O[C@@H]2[C@@H](C)[C@H](O[C@H]3C[C@@](C)(OC)[C@@H](O)[C@H](C)O3)[C@@H](C)C(=O)O[C@H](CC)[C@@]3(C)OC(=O)N(CCc4ccc(Cl)cc4)[C@@H]3[C@@H](C)C(=O)[C@H](C)C[C@@]2(C)OC)[C@@H]1O (stereo partly shown) [Example 35]
7.59

Fill: Ki (LHRH rat pituitary receptor (Rattus norvegicus)) for this compound CC[C@H]1OC(=O)[C@H](C)[C@@H](O[C@H]2C[C@@](C)(OC)[C@@H](O)[C@H](C)O2)[C@H](C)[C@@H](O[C@@H]2O[C@H](C)C[C@H](N(C)CC3CC(OC)OC3OC)[C@H]2O)[C@](C)(OC)C[C@@H](C)C(=O)[C@H](C)[C@H]2N(CCc3ccc(Cl)c(Cl)c3)C(=O)O[C@]12C (stereo partly shown) [Example 69]
6.17

----------
Assayed Target: LHRH rat pituitary receptor (Rattus norvegicus)
Construct: from tissue; host or cells: rat pituitary
Sequence (P30969 1-327): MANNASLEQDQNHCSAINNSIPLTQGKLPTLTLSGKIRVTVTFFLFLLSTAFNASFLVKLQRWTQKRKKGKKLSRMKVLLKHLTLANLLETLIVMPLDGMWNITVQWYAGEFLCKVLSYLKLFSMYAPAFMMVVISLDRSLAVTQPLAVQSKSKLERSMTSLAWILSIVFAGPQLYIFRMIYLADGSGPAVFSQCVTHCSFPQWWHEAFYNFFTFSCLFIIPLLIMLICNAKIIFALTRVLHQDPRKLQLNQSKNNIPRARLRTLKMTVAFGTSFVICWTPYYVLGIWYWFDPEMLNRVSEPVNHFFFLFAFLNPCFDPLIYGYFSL
Protocol Notes: LHRH rat pituitary receptor binding (pKI)
Condition Context: negative logarithm of the equilibrium dissociation constants, Table 1, read-out: receptor binding affinity (pKI) (converted)
# Ki listing for each entry below
The answer is to be given in nM; state only the numeric part.

CCCN(C)[C@H]1C[C@@H](C)O[C@@H](O[C@@H]2[C@@H](C)[C@H](O[C@H]3C[C@@](C)(OC)[C@@H](O)[C@H](C)O3)[C@@H](C)C(=O)O[C@H](CC)[C@@]3(C)OC(=O)N(CCc4ccc5c(c4)OCO5)[C@@H]3[C@@H](C)C(=O)[C@H](C)C[C@@]2(C)OC)[C@@H]1O; 1.78

Now consider the entry below.
Tell me Ki reported for CC[C@H]1OC(=O)[C@H](C)[C@@H](O[C@H]2C[C@@](C)(OC)[C@@H](O)[C@H](C)O2)[C@H](C)[C@@H](O[C@@H]2O[C@H](C)C[C@H](N(C)C3CCC3)[C@H]2O)[C@](C)(OC)C[C@@H](C)C(=O)[C@H](C)[C@H]2N(CCc3ccc(Cl)c(F)c3)C(=O)O[C@]12C
7.94
